# Target: bovine erythrocyte CA (Bos taurus, UniProt P00921)
# Sequence (P00921 whole entry): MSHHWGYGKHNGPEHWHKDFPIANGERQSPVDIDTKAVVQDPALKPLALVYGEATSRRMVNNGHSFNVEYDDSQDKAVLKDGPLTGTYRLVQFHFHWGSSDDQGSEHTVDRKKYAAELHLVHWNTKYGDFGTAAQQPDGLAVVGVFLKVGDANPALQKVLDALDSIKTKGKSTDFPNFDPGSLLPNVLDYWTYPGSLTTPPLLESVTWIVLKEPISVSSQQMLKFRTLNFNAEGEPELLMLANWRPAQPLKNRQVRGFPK
Readout type: pIC50
pIC50 here: minus log base 10 of the concentration, concentration in moles per litre.

Item: "CCCC1=NOC(=O)/C1=C/c1cccs1" | System: bovine erythrocyte CA (Bos taurus, UniProt P00921) | pIC50: 3.95
